Assignment: determine reported AC50 for the given compounds.
target: 5-hydroxytryptamine receptor 2C (Homo sapiens); note: assay procedure not described here
Sequence (P28335 whole entry): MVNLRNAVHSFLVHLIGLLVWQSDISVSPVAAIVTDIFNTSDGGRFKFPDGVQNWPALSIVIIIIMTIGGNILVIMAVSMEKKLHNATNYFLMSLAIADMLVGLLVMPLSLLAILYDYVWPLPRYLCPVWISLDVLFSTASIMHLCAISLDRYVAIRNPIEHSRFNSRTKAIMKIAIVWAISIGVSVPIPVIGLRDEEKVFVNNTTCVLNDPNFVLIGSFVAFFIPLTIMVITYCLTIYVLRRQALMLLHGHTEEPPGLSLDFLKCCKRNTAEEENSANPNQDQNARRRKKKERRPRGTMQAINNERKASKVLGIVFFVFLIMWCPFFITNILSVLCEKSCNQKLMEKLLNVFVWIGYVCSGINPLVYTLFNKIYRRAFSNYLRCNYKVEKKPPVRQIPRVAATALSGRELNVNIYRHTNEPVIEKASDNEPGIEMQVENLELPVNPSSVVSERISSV

compound | AC50
Nc1nc(/C(=C/CC(=O)O)C(=O)N[C@@H]2C(=O)N3C(C(=O)O)=CCS[C@H]23)cs1 [CEFTIBUTEN] | > 30 µM

Record AC50 for all entries; do not skip any.
1. CC(C)(C)c1cc(C(C)(C)C)c(NC(=O)c2c[nH]c3ccccc3c2=O)cc1O [IVACAFTOR]
2. Cc1ccc(-n2nccn2)c(C(=O)N2CCN(c3nc4cc(Cl)ccc4o3)CC[C@H]2C)c1 [SUVOREXANT]
3. CC(Oc1c(Cl)cccc1Cl)C1=NCCN1 (centres undefined) [LOFEXIDINE]
4. NCC(CC(=O)O)c1ccc(Cl)cc1 (centres undefined) [BACLOFEN]

Response:
1. > 30 µM
2. > 30 µM
3. > 30 µM
4. > 30 µM

Hi there! I need AC50 for each item below, if you can.
1. CCC(C)n1ncn(-c2ccc(N3CCN(c4ccc(OCC5COC(Cn6cncn6)(c6ccc(Cl)cc6Cl)O5)cc4)CC3)cc2)c1=O (centres undefined) [ITRACONAZOLE]
2. CC[C@@H]1C(=O)OC[C@@H]1Cc1cncn1C [PILOCARPINE]
3. C=CCc1ccccc1OCC(O)CNC(C)C (centres undefined) [ALPRENOLOL]
4. CCN1CCN(C(=O)N[C@@H](C(=O)N[C@@H]2C(=O)N3C(C(=O)O)=C(CSc4nnnn4C)CS[C@H]23)c2ccc(O)cc2)C(=O)C1=O [CEFOPERAZONE]
5. CC[C@H]1OC(=O)[C@H](C)[C@@H](O[C@H]2C[C@@](C)(OC)[C@@H](O)[C@H](C)O2)[C@H](C)[C@@H](O[C@@H]2O[C@H](C)C[C@H](N(C)C)[C@H]2O)[C@](C)(O)C[C@@H](C)CN(C)[C@H](C)[C@@H](O)[C@]1(C)O [AZITHROMYCIN]

Response:
1. > 30 µM
2. > 30 µM
3. > 30 µM
4. > 30 µM
5. > 30 µM

Can you give me AC50 for all of these, one by one?
1. CN(C)/N=N/c1[nH]cnc1C(N)=O [DACARBAZINE]
2. CC=CC(=O)N(CC)c1ccccc1C
3. CCCC(C)C1(CC)C(=O)NC(=O)NC1=O (centres undefined) [PENTOBARBITAL]

Response:
["> 30 µM", "> 30 µM", "> 30 µM"]

Values compiled from ChEMBL document CHEMBL5291721.
